assay: compound binding in COS7 lysate, probe aLAP1, primary screen, cell lysate, small-molecule microarray (AID 1124); details: probe aLAP1, fluorescence, higher = more signal;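 note: lysate comes from COS7 cells expressing LAP1 and is applied at 0.3 µg/mL; score merges spot fluorescence near 667 nm with signal-to-noise over triplicate slides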
Provide the reported composite z-score of each item.
Please reply with the number alone, leaving off any unit.

Look up composite z-score: O=C1OCCC=C1C(O)CCc1ccccc1 (stereo not given)
0.181

And then `COc1ccc(COC(=O)NN=C2C[C@@H](O)[C@@H](O)[C@@H]3[C@@H]4C(=O)N(c5cccc(Oc6ccccc6)c5)C(=O)[C@@H]4CC[C@@H]23)cc1` , what is it?
-0.116

And then `CC(C)CON=C1C[C@@H](O)[C@@H](O)[C@@H]2[C@@H]3C(=O)N(C4CCCCC4)C(=O)[C@@H]3CC[C@@H]12` , what is it?
-0.499

And then `CC(=O)OC[C@H]1O[C@@H](ON=C(C)CCN2CCCc3nc(C)c(C)cc32)[C@H](OC(C)=O)[C@@H](OC(C)=O)[C@@H]1OC(C)=O` , what is it?
0.16

And then `O=C(C=Cc1ccc2c(c1)OCO2)c1ccc(F)cc1` , what is it?
0.134

And then `CO[C@H]1COC(=O)[C@@H](C)COC(=O)[C@@H](OCc2ccccc2)C=C[C@@H]1C` , what is it?
-0.259

And then `CO[C@H]1COC(=O)CC=C[C@@H](C)[C@H](OC)COC(=O)CCC[C@@H]1C` , what is it?
0.923

And then `Cc1ccc(S(=O)(=O)n2c3ccccc3c3nnc(C(=O)c4ccccc4)nc32)cc1` , what is it?
0.246

And then `C=CC[C@@H]1C=C[C@H](ON=C2[C@H]3CCn4c(=O)n(-c5ccccc5)c(=O)n4[C@H]3[C@H](O)[C@@H]3O[C@H]23)[C@@H](CO)O1` , what is it?
-0.208

And then C[C@H]1CC[C@H]2C(=O)OC(CO)CN2[C@@H]1c1ccc(Br)cc1 (stereo not given in full) , what is it?
-0.311

And then `O=C(NN=C1C[C@@H](O)[C@@H](O)[C@@H]2[C@@H]3C(=O)N(C[C@@H]4CCCO4)C(=O)[C@@H]3CC[C@@H]12)OCc1ccccc1` , what is it?
0.373

And then `CC(C)=CCCC(C)=CCON=C1C[C@@H](O)[C@@H](O)[C@@H]2[C@@H]3C(=O)N(c4cccc(Oc5ccccc5)c4)C(=O)[C@@H]3CC[C@@H]12` , what is it?
-0.0676

And then `COC(=O)C1=C(C)N(Cc2ccccc2)[C@]23O[C@](C(=O)OC)(C(=O)N2[C@@H]1c1ccccc1)C(C(=O)OC)=C3C(=O)OC` , what is it?
-0.624

And then `COC(=O)CC=C[C@@H](C)[C@@H]1C=C[C@H](O)[C@@H](CO)O1` , what is it?
-0.171

And then `COC(=O)[C@@H]1CC[C@H](C)[C@@H](c2ccc(C)cc2)N1C(=O)c1ccc(C=NO[C@@H]2O[C@H](COC(C)=O)[C@@H](OC(C)=O)[C@H](OC(C)=O)[C@H]2OC(C)=O)cc1` , what is it?
0.116
